valueType: Ki (nM)
The reply should contain only the number, in nM.

Q: Value wanted: Ki (Cannabinoid receptor 2 (Homo sapiens)) of entry CCCCCCCC/C=C\CCCCCCCC(=O)N[C@H]1C[C@@H]1O [cyclopropanolamide, 11b]
Ans: 2420

Q: Param readout= Ki; system= Cannabinoid receptor 2 (Homo sapiens); entry= CCCCCCCC/C=C\CCCCCCCC(=O)N[C@H]1C[C@H]1O [cyclopropanolamide, 14b] ; returns value.
Ans: 1630

* * *

molecular target: Transient receptor potential cation channel subfamily V member 1 (Homo sapiens); assay: TRPV1 Channel Activity Assay
Sequence (Q8NER1 whole entry): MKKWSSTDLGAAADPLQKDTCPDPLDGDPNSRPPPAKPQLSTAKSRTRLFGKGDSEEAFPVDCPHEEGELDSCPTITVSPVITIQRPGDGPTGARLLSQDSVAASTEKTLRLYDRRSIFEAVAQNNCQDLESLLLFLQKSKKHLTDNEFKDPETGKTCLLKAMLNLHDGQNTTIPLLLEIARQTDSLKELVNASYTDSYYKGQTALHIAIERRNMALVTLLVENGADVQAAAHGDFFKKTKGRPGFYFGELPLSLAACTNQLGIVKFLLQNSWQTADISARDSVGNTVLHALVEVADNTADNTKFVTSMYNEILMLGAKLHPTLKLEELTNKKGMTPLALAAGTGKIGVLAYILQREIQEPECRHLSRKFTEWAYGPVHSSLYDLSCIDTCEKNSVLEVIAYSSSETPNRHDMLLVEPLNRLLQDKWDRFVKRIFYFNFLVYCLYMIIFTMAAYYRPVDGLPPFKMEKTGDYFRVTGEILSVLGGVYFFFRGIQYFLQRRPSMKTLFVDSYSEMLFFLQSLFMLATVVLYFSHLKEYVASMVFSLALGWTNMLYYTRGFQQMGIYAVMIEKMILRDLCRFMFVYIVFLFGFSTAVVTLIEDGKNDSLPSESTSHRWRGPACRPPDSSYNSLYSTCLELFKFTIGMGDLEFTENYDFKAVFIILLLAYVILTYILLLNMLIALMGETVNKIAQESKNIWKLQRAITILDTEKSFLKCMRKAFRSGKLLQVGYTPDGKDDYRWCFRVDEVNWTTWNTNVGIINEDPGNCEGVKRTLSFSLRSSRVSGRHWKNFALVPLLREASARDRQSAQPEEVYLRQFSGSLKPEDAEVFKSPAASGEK
Would you kindly list EC50 for each of these molecules?
Just the number please, in µM, no unit attached.

Q: Item under review: CCCCCCCC/C=C\CCCCCCCC(=O)N[C@H]1C[C@H]1O [cyclopropanolamide, 14b] . Reported EC50?
Ans: 0.18

Q: Reported EC50, molecule CCCCCCCC/C=C\CCCCCCCC(=O)N[C@H]1C[C@@H]1O [cyclopropanolamide, 11b] : ____
Ans: 0.019
